# Test system: NCI-H196 complex spheroid growth, percent test/control
# protocol summary: Anticancer human tumor NCI-H196 cell line growth inhibition [AhR]
# assay setup: second compound 10 µM; first compound 0.003 µM; hits give low values

molecule: Nc1ncn(C2CC(O)C(CO)S2)c(=O)n1 (stereo unspecified) + Cc1ccccc1N=Nc1ccc(NC(=O)c2ccnn2C)c(C)c1
assay system: NCI-H196 complex spheroid growth, percent test/control
viability, T/C, %: 82.4

molecule: CC(C)CC(NC(=O)C(Cc1ccccc1)NC(=O)c1cnccn1)B(O)O (stereo unspecified) + Cc1ccccc1N=Nc1ccc(NC(=O)c2ccnn2C)c(C)c1
assay system: NCI-H196 complex spheroid growth, percent test/control
viability, T/C, %: 90.5

molecule: CCc1c2c(nc3ccc(O)cc13)-c1cc3c(c(=O)n1C2)COC(=O)[C@]3(O)CC + CC(CO)NC(=O)c1cc(-c2ccc(Cl)cc2)nn(-c2cnn(C)c2)c1=O
assay system: NCI-H196 complex spheroid growth, percent test/control
viability, T/C, %: 111

molecule: Nc1ncn(C2CC(O)C(CO)S2)c(=O)n1 (stereo unspecified) + CC(CO)NC(=O)c1cc(-c2ccc(Cl)cc2)nn(-c2cnn(C)c2)c1=O
assay system: NCI-H196 complex spheroid growth, percent test/control
viability, T/C, %: 116

molecule: CCc1c2c(nc3ccc(O)cc13)-c1cc3c(c(=O)n1C2)COC(=O)[C@]3(O)CC + Cc1ccccc1N=Nc1ccc(NC(=O)c2ccnn2C)c(C)c1
assay system: NCI-H196 complex spheroid growth, percent test/control
viability, T/C, %: 108

molecule: CC(C)CC(NC(=O)C(Cc1ccccc1)NC(=O)c1cnccn1)B(O)O (stereo unspecified) + CC(CO)NC(=O)c1cc(-c2ccc(Cl)cc2)nn(-c2cnn(C)c2)c1=O
assay system: NCI-H196 complex spheroid growth, percent test/control
viability, T/C, %: 116

----------
Each record here notes measured viability, T/C.
# Tested on: NCI-H196 complex spheroid growth, percent test/control
# protocol summary: Anticancer human tumor NCI-H196 cell line growth inhibition [AhR]
# assay setup: second compound 1 µM; first compound 3.16 µM; hits give low values
endpoint label: viability, T/C

molecule: Nc1ccn(C2OC(CO)C(O)C2(F)F)c(=O)n1 (stereo unspecified) + Cc1cncc(-c2nc(NCCc3c[nH]c4ccccc34)c3ncn(C(C)C)c3n2)c1
assay system: NCI-H196 complex spheroid growth, percent test/control
result: 45.5%
//
molecule: CC(C)c1c(-c2ccccc2)nc2c(C#N)c[nH]n2c1=O + Cc1cncc(-c2nc(NCCc3c[nH]c4ccccc34)c3ncn(C(C)C)c3n2)c1
assay system: NCI-H196 complex spheroid growth, percent test/control
result: 112%
//
molecule: O=C(C=Cc1cccc(S(=O)(=O)Nc2ccccc2)c1)NO + CC(CO)NC(=O)c1cc(-c2ccc(Cl)cc2)nn(-c2cnn(C)c2)c1=O
assay system: NCI-H196 complex spheroid growth, percent test/control
result: 28.5%
//
molecule: Nc1ccccc1NC(=O)c1ccc(CNC(=O)OCc2cccnc2)cc1 + Cc1ccccc1N=Nc1ccc(NC(=O)c2ccnn2C)c(C)c1
assay system: NCI-H196 complex spheroid growth, percent test/control
result: 20.7%
//
molecule: COc1cc(Nc2ncc3c(n2)-c2ccc(Cl)cc2C(c2c(F)cccc2OC)=NC3)ccc1C(=O)O + Cc1cncc(-c2nc(NCCc3c[nH]c4ccccc34)c3ncn(C(C)C)c3n2)c1
assay system: NCI-H196 complex spheroid growth, percent test/control
result: 104%
//
molecule: CC1COCCN1c1cc(C2(S(C)(=N)=O)CC2)nc(-c2ccnc3[nH]ccc23)n1 (stereo unspecified) + CC(CO)NC(=O)c1cc(-c2ccc(Cl)cc2)nn(-c2cnn(C)c2)c1=O
assay system: NCI-H196 complex spheroid growth, percent test/control
result: 100%

----------
Each record here notes measured viability, T/C.
# Tested on: NCI-H196 complex spheroid growth, percent test/control
# protocol summary: Anticancer human tumor NCI-H196 cell line growth inhibition [AhR];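 note: seven days of drug exposure starting three days after plating; 100% = DMSO vehicle control wells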
# assay setup: second compound 0.316 µM; first compound 0.0949 µM; hits give low values

compound: O=C(C=Cn1cnc(-c2cc(C(F)(F)F)cc(C(F)(F)F)c2)n1)NNc1cnccn1 + Cc1cncc(-c2nc(NCCc3c[nH]c4ccccc34)c3ncn(C(C)C)c3n2)c1
viability, T/C: 25.1%
//
compound: CC(C)CC(NC(=O)C(Cc1ccccc1)NC(=O)c1cnccn1)B(O)O (stereo unspecified) + Cc1ccccc1N=Nc1ccc(NC(=O)c2ccnn2C)c(C)c1
viability, T/C: 4.16%
//
compound: O=C(C=Cn1cnc(-c2cc(C(F)(F)F)cc(C(F)(F)F)c2)n1)NNc1cnccn1 + Cc1ccccc1N=Nc1ccc(NC(=O)c2ccnn2C)c(C)c1
viability, T/C: 8.61%
//
compound: CCc1c2c(nc3ccc(O)cc13)-c1cc3c(c(=O)n1C2)COC(=O)[C@]3(O)CC + Cc1ccccc1N=Nc1ccc(NC(=O)c2ccnn2C)c(C)c1
viability, T/C: 89.2%
//
compound: CCN(c1cc(-c2ccc(CN3CCOCC3)cc2)cc(C(=O)NCc2c(C)cc(C)[nH]c2=O)c1C)C1CCOCC1 + CC(CO)NC(=O)c1cc(-c2ccc(Cl)cc2)nn(-c2cnn(C)c2)c1=O
viability, T/C: 105%
//
compound: CCc1c2c(nc3ccc(O)cc13)-c1cc3c(c(=O)n1C2)COC(=O)[C@]3(O)CC + CC(CO)NC(=O)c1cc(-c2ccc(Cl)cc2)nn(-c2cnn(C)c2)c1=O
viability, T/C: 108%

----------
# Test system: NCI-H196 complex spheroid growth, percent test/control
# protocol summary: Anticancer human tumor NCI-H196 cell line growth inhibition [AhR];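 note: seven days of drug exposure starting three days after plating; 100% = DMSO vehicle control wells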
# assay setup: second compound 1 µM; first compound 0.1 µM; hits give low values
Each record here notes measured viability, T/C.

molecule: CC[C@@]1(O)C(=O)OCc2c1cc1n(c2=O)Cc2cc3c(CN(C)C)c(O)ccc3nc2-1 + CC(CO)NC(=O)c1cc(-c2ccc(Cl)cc2)nn(-c2cnn(C)c2)c1=O
viability, T/C: 119%
//
molecule: CC1COCCN1c1cc(-c2ccnn2C)c2ccnc(-c3ccn[nH]3)c2n1 (stereo unspecified) + Cc1ccccc1N=Nc1ccc(NC(=O)c2ccnn2C)c(C)c1
viability, T/C: 71.1%
//
molecule: COc1cc(C2c3cc4c(cc3C(OC3OC5COC(C)OC5C(O)C3O)C3COC(=O)C23)OCO4)cc(OC)c1O (stereo unspecified) + Cc1cncc(-c2nc(NCCc3c[nH]c4ccccc34)c3ncn(C(C)C)c3n2)c1
viability, T/C: 112%
//
molecule: COc1ccc([C@@H](O)c2cc(-c3ncnc4cc(N5CCOCC5)ccc34)c(F)cc2Cl)nn1 + Cc1cncc(-c2nc(NCCc3c[nH]c4ccccc34)c3ncn(C(C)C)c3n2)c1
viability, T/C: 111%
//
molecule: NS(=O)(=O)OCC1CC(n2ccc3c(NC4CCc5ccccc54)ncnc32)CC1O (stereo unspecified) + Cc1ccccc1N=Nc1ccc(NC(=O)c2ccnn2C)c(C)c1
viability, T/C: 87.6%
//
molecule: Nc1ccn(C2OC(CO)C(O)C2(F)F)c(=O)n1 (stereo unspecified) + Cc1cncc(-c2nc(NCCc3c[nH]c4ccccc34)c3ncn(C(C)C)c3n2)c1
viability, T/C: 60.7%

----------
# System: NCI-H196 complex spheroid growth, percent test/control
# protocol summary: Anticancer human tumor NCI-H196 cell line growth inhibition [AhR];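 note: seven days of drug exposure starting three days after plating; 100% = DMSO vehicle control wells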
# assay setup: second compound 3.16 µM; first compound 0.1 µM; hits give low values

compound: CC(C)c1c(-c2ccccc2)nc2c(C#N)c[nH]n2c1=O + Cc1cncc(-c2nc(NCCc3c[nH]c4ccccc34)c3ncn(C(C)C)c3n2)c1
viability, T/C: 117%

compound: O=C(c1cc(Cc2n[nH]c(=O)c3ccccc23)ccc1F)N1CCN(C(=O)C2CC2)CC1 + Cc1cncc(-c2nc(NCCc3c[nH]c4ccccc34)c3ncn(C(C)C)c3n2)c1
viability, T/C: 106%

compound: Cn1ncnc1C1c2n[nH]c(=O)c3cc(F)cc(c23)NC1c1ccc(F)cc1 (stereo not given) + Cc1cncc(-c2nc(NCCc3c[nH]c4ccccc34)c3ncn(C(C)C)c3n2)c1
viability, T/C: 103%

compound: Cn1ncnc1C1c2n[nH]c(=O)c3cc(F)cc(c23)NC1c1ccc(F)cc1 (stereo not given) + CC(CO)NC(=O)c1cc(-c2ccc(Cl)cc2)nn(-c2cnn(C)c2)c1=O
viability, T/C: 107%

compound: COc1cc(C2c3cc4c(cc3C(OC3OC5COC(C)OC5C(O)C3O)C3COC(=O)C23)OCO4)cc(OC)c1O (stereo not given) + Cc1cncc(-c2nc(NCCc3c[nH]c4ccccc34)c3ncn(C(C)C)c3n2)c1
viability, T/C: 114%

----------
# System: NCI-H196 complex spheroid growth, percent test/control
# protocol summary: Anticancer human tumor NCI-H196 cell line growth inhibition [AhR];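 note: seven days of drug exposure starting three days after plating; 100% = DMSO vehicle control wells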
# assay setup: second compound 0.316 µM; first compound 0.1 µM; hits give low values
Each record here notes measured viability, T/C.

compound: Cn1ncnc1C1c2n[nH]c(=O)c3cc(F)cc(c23)NC1c1ccc(F)cc1 (stereo not drawn) + Cc1ccccc1N=Nc1ccc(NC(=O)c2ccnn2C)c(C)c1
output unit: %
viability, T/C: 104

compound: CC1(C)CCC(CN2CCN(c3ccc(C(=O)NS(=O)(=O)c4ccc(NCC5CCOCC5)c([N+](=O)[O-])c4)c(Oc4cnc5[nH]ccc5c4)c3)CC2)=C(c2ccc(Cl)cc2)C1 + Cc1ccccc1N=Nc1ccc(NC(=O)c2ccnn2C)c(C)c1
output unit: %
viability, T/C: 106

compound: NS(=O)(=O)OCC1CC(n2ccc3c(NC4CCc5ccccc54)ncnc32)CC1O (stereo not drawn) + Cc1ccccc1N=Nc1ccc(NC(=O)c2ccnn2C)c(C)c1
output unit: %
viability, T/C: 81.2

compound: Nc1ccccc1NC(=O)c1ccc(CNC(=O)OCc2cccnc2)cc1 + Cc1ccccc1N=Nc1ccc(NC(=O)c2ccnn2C)c(C)c1
output unit: %
viability, T/C: 83.9

compound: COc1cc(C2c3cc4c(cc3C(OC3OC5COC(C)OC5C(O)C3O)C3COC(=O)C23)OCO4)cc(OC)c1O (stereo not drawn) + CC(CO)NC(=O)c1cc(-c2ccc(Cl)cc2)nn(-c2cnn(C)c2)c1=O
output unit: %
viability, T/C: 118

compound: O=C(C=Cc1cccc(S(=O)(=O)Nc2ccccc2)c1)NO + Cc1ccccc1N=Nc1ccc(NC(=O)c2ccnn2C)c(C)c1
output unit: %
viability, T/C: 96.5

compound: CC1COCCN1c1cc(-c2ccnn2C)c2ccnc(-c3ccn[nH]3)c2n1 (stereo not drawn) + Cc1ccccc1N=Nc1ccc(NC(=O)c2ccnn2C)c(C)c1
output unit: %
viability, T/C: 71.3

compound: COc1ccc([C@@H](O)c2cc(-c3ncnc4cc(N5CCOCC5)ccc34)c(F)cc2Cl)nn1 + Cc1cncc(-c2nc(NCCc3c[nH]c4ccccc34)c3ncn(C(C)C)c3n2)c1
output unit: %
viability, T/C: 99.6

compound: CC1(C)CCC(CN2CCN(c3ccc(C(=O)NS(=O)(=O)c4ccc(NCC5CCOCC5)c([N+](=O)[O-])c4)c(Oc4cnc5[nH]ccc5c4)c3)CC2)=C(c2ccc(Cl)cc2)C1 + Cc1cncc(-c2nc(NCCc3c[nH]c4ccccc34)c3ncn(C(C)C)c3n2)c1
output unit: %
viability, T/C: 96

compound: Nc1ccn(C2OC(CO)C(O)C2(F)F)c(=O)n1 (stereo not drawn) + Cc1cncc(-c2nc(NCCc3c[nH]c4ccccc34)c3ncn(C(C)C)c3n2)c1
output unit: %
viability, T/C: 62.8

compound: CC[C@@]1(O)C(=O)OCc2c1cc1n(c2=O)Cc2cc3c(CN(C)C)c(O)ccc3nc2-1 + Cc1cncc(-c2nc(NCCc3c[nH]c4ccccc34)c3ncn(C(C)C)c3n2)c1
output unit: %
viability, T/C: 99.2

compound: CC1COCCN1c1cc(-c2ccnn2C)c2ccnc(-c3ccn[nH]3)c2n1 (stereo not drawn) + Cc1cncc(-c2nc(NCCc3c[nH]c4ccccc34)c3ncn(C(C)C)c3n2)c1
output unit: %
viability, T/C: 71.2

compound: Nc1ncn(C2CC(O)C(CO)O2)c(=O)n1 (stereo not drawn) + CC(CO)NC(=O)c1cc(-c2ccc(Cl)cc2)nn(-c2cnn(C)c2)c1=O
output unit: %
viability, T/C: 107

compound: Nc1ccccc1NC(=O)c1ccc(CNC(=O)OCc2cccnc2)cc1 + Cc1cncc(-c2nc(NCCc3c[nH]c4ccccc34)c3ncn(C(C)C)c3n2)c1
output unit: %
viability, T/C: 78.7

compound: COc1cccc2c1C(=O)c1c(O)c3c(c(O)c1C2=O)CC(O)(C(=O)CO)CC3OC1CC(N)C(O)C(C)O1 (stereo not drawn) + CC(CO)NC(=O)c1cc(-c2ccc(Cl)cc2)nn(-c2cnn(C)c2)c1=O
output unit: %
viability, T/C: 116

compound: COc1ccc([C@@H](O)c2cc(-c3ncnc4cc(N5CCOCC5)ccc34)c(F)cc2Cl)nn1 + CC(CO)NC(=O)c1cc(-c2ccc(Cl)cc2)nn(-c2cnn(C)c2)c1=O
output unit: %
viability, T/C: 100

compound: COc1cccc2c1C(=O)c1c(O)c3c(c(O)c1C2=O)CC(O)(C(=O)CO)CC3OC1CC(N)C(O)C(C)O1 (stereo not drawn) + Cc1cncc(-c2nc(NCCc3c[nH]c4ccccc34)c3ncn(C(C)C)c3n2)c1
output unit: %
viability, T/C: 115

compound: Nc1ncn(C2CC(O)C(CO)O2)c(=O)n1 (stereo not drawn) + Cc1cncc(-c2nc(NCCc3c[nH]c4ccccc34)c3ncn(C(C)C)c3n2)c1
output unit: %
viability, T/C: 104

compound: CC1(C)CCC(CN2CCN(c3ccc(C(=O)NS(=O)(=O)c4ccc(NCC5CCOCC5)c([N+](=O)[O-])c4)c(Oc4cnc5[nH]ccc5c4)c3)CC2)=C(c2ccc(Cl)cc2)C1 + CC(CO)NC(=O)c1cc(-c2ccc(Cl)cc2)nn(-c2cnn(C)c2)c1=O
output unit: %
viability, T/C: 101

compound: O=C(c1cc(Cc2n[nH]c(=O)c3ccccc23)ccc1F)N1CCN(C(=O)C2CC2)CC1 + Cc1ccccc1N=Nc1ccc(NC(=O)c2ccnn2C)c(C)c1
output unit: %
viability, T/C: 103

compound: Nc1ccn(C2OC(CO)C(O)C2(F)F)c(=O)n1 (stereo not drawn) + Cc1ccccc1N=Nc1ccc(NC(=O)c2ccnn2C)c(C)c1
output unit: %
viability, T/C: 88.2

compound: CC[C@@]1(O)C(=O)OCc2c1cc1n(c2=O)Cc2cc3c(CN(C)C)c(O)ccc3nc2-1 + Cc1ccccc1N=Nc1ccc(NC(=O)c2ccnn2C)c(C)c1
output unit: %
viability, T/C: 96.9

compound: COc1cc(Nc2ncc3c(n2)-c2ccc(Cl)cc2C(c2c(F)cccc2OC)=NC3)ccc1C(=O)O + Cc1ccccc1N=Nc1ccc(NC(=O)c2ccnn2C)c(C)c1
output unit: %
viability, T/C: 89.3
